Target: DRB1*1302 (DR6w19) (Homo sapiens, UniProt P01903+P01911, A100E/A169T/K41T/L162R/M171V/P40S/Q125H/Q178H/Q39Y/Q99D/R42S/S66N/T262R/V115G/W38E/Y61H)
Sequence (P01903 26-254 limits assumed, other chains not shown): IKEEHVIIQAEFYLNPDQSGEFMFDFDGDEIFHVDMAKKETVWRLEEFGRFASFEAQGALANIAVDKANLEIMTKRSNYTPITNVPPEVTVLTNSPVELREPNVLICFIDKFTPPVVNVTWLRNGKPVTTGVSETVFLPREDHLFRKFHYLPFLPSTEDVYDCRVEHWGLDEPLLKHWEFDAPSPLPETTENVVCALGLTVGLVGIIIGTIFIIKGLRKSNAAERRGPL
Test: HLA class II peptide binding assay, purified HLA
Conditions: Table XIX, DR supermotif peptides; unit not given
MEASURED QUANTITY: DR6w19 binding data
Lab note: record just the number, no unit beside it.

A selection of reference data follows.
CC[C@H](C)[C@H](NC(=O)[C@H](CCC(N)=O)NC(=O)[C@H](CCSC)NC(=O)[C@H](CS)NC(=O)[C@H](Cc1c[nH]c2ccccc12)NC(=O)[C@H](CC(N)=O)NC(=O)[C@H](CC(C)C)NC(=O)[C@@H](N)CC(C)C)C(=O)N[C@@H](C)C(=O)N[C@@H](CCCCN)C(=O)NCC(=O)N[C@@H](CCSC)C(=O)N[C@@H](CO)C(=O)N[C@@H](Cc1ccc(O)cc1)C(=O)N[C@@H](CC(C)C)C(=O)O 0.0390
CSCC[C@H](NC(=O)[C@H](CC(C)C)NC(=O)[C@H](CCC(N)=O)NC(=O)[C@@H](NC(=O)[C@@H](NC(=O)[C@H](CC(C)C)NC(=O)[C@H](CCC(N)=O)NC(=O)[C@@H](NC(=O)[C@@H](N)[C@@H](C)O)C(C)C)C(C)C)[C@@H](C)O)C(=O)N1CCC[C@H]1C(=O)N[C@@H](Cc1ccc(O)cc1)C(=O)NCC(=O)N[C@@H](CS)C(=O)N[C@@H](CC(C)C)C(=O)N[C@@H](CC(C)C)C(=O)O 0.0031

Attention now turns to another entry.
So what's the measured DR6w19 binding data for this one? "CC[C@H](C)[C@H](NC(=O)[C@H](CCSC)NC(=O)[C@H](Cc1c[nH]c2ccccc12)NC(=O)[C@H](CS)NC(=O)[C@H](CCCCN)NC(=O)[C@@H](NC(=O)[C@H](CCSC)NC(=O)[C@@H](NC(=O)[C@H](CCSC)NC(=O)[C@H](Cc1ccc(O)cc1)NC(=O)[C@@H](NC(=O)[C@@H](N)CC(=O)O)C(C)C)[C@@H](C)CC)C(C)C)C(=O)N[C@@H](CC(=O)O)C(=O)N[C@@H](CO)C(=O)N[C@@H](CCC(=O)O)C(=O)O"
−0.0003
